The origin of these recorded values is BindingDB's records for doi:10.1016/j.ejmech.2018.07.023.

- experiment.summary: Inhibition of recombinant rat Gi coupled mGlu2 receptor expressed in CHO cells assessed as suppression of L-glutamate-induced decrease in cAMP level pretreated for 1 hr followed by L-glutamate/forskolin addition and measured after 30 mins by FRET assay
pIC50: −log10 of the molar value. *1 amine or outer side, *2 acyl side, *3 side chain or, on linkers, in order; H or OH if unused. Where a SMILES comes first, the peptide text is derived from it. Bridges are numbered along the chain shown (N, C = ends). [ ]: non-standard residue; d: D form. Leu(3R-O(AcLeu(3R-OH))) = CC(=O)N[C@H](C(=O)O[C@H](C(C)C)[C@H](N)C(=O)O)[C@H](O)C(C)C; X1 = CC(C)[C@@H](O[*:3])[C@H](N[*:1])C(=O)[*:2]; NMeT = CN[C@H](C(=O)O)[C@@H](C)O; dPhLac = O=C(O)[C@H](O)Cc1ccccc1; NMeA = CN[C@@H](C)C(=O)O; NMeDha = C=C(NC)C(=O)O
Below is a list of entries, each paired with its recorded pIC50 value.

- CO[C@H](C)[C@H]1C(=O)O[C@H](C)[C@H](NC(C)=O)C(=O)O[C@H](CC(C)C)C(=O)N(C)[C@H](CO)C(=O)N[C@@H](C)C(=O)N(C)[C@@H](C)C(=O)N[C@@H]([C@H](OC(=O)[C@@H](NC(C)=O)[C@H](O)C(C)C)C(C)C)C(=O)N1C: < 4.00

Entry C=C1C(=O)N[C@@H](C)C(=O)N(C)[C@@H](C)C(=O)N[C@@H]([C@H](OC(=O)[C@@H](NC(C)=O)[C@H](O)C(C)C)C(C)C)C(=O)N(C)[C@@H]([C@@H](C)OC)C(=O)O[C@H](C)[C@H](NC(C)=O)C(=O)O[C@H](Cc2ccccc2)C(=O)N1C ; pIC50 = < 4.00

Entry C=C1C(=O)N[C@@H](C)C(=O)N(C)[C@@H](C)C(=O)N[C@@H]([C@H](OC(=O)[C@@H](NC(=O)c2ccccc2)[C@H](O)C(C)C)C(C)C)C(=O)N(C)[C@@H]([C@@H](C)OC)C(=O)O[C@H](C)[C@H](NC(C)=O)C(=O)O[C@H](Cc2ccccc2)C(=O)N1C ; pIC50 = < 4.00

Entry C=C1C(=O)N[C@@H](C)C(=O)N(C)[C@@H](C)C(=O)N[C@@H]([C@H](OC(=O)[C@@H](NC(C)=O)[C@H](O)C(C)C)C(C)C)C(=O)N(C)[C@@H]([C@@H](C)OC)C(=O)O[C@H](C(C)C)[C@H](NC(C)=O)C(=O)O[C@H](Cc2ccccc2)C(=O)N1C (Ac-[X1][dPhLac][NMeDha]A[NMeA][Leu(3R-O(AcLeu(3R-OH)))][NMeT](Me); ester 1-C) ; pIC50 = < 4.30
